- Target under test: human TLR9 (Homo sapiens)
- Assay: TLR9 inhibition reporter assay (HEK-Blue cells, SEAP reporter, ODN2006 stimulation)
- Run parameters: HEK-Blue cells overexpressing human TLR9, SEAP reporter, ODN2006 5 nM
Experimental endpoint: pIC50
Give bare numbers, as −log10 of the molar value.

COCCN1CCc2cc(-c3n[nH]c(-c4cc(C)c5ncnn5c4)c3C(C)C)ccc2C1 [Example 263] : 4.74
Cc1cc(-c2[nH]nc(-c3ccc(C(N)=O)cc3)c2C(C)C)cn2ncnc12 [Example 229] : 5.30
COCCN1CCC(NC(=O)c2n[nH]c(-c3cc(C)c4ncnn4c3)c2C(C)C)CC1 [Example 171] : 6.06

stdin: Return pIC50 measured with human TLR9 (Homo sapiens) given this compound: Cc1cc(-c2[nH]nc(C(=O)N[C@H]3CC[C@H](NC(C)C(C)C)CC3)c2C(C)C)cn2ncnc12 (stereo partly shown) [Example 118]
stdout: 5.48

====

- Target under test: human TLR9 (Homo sapiens, UniProt Q9NR96)
- Sequence (Q9NR96 26-1032): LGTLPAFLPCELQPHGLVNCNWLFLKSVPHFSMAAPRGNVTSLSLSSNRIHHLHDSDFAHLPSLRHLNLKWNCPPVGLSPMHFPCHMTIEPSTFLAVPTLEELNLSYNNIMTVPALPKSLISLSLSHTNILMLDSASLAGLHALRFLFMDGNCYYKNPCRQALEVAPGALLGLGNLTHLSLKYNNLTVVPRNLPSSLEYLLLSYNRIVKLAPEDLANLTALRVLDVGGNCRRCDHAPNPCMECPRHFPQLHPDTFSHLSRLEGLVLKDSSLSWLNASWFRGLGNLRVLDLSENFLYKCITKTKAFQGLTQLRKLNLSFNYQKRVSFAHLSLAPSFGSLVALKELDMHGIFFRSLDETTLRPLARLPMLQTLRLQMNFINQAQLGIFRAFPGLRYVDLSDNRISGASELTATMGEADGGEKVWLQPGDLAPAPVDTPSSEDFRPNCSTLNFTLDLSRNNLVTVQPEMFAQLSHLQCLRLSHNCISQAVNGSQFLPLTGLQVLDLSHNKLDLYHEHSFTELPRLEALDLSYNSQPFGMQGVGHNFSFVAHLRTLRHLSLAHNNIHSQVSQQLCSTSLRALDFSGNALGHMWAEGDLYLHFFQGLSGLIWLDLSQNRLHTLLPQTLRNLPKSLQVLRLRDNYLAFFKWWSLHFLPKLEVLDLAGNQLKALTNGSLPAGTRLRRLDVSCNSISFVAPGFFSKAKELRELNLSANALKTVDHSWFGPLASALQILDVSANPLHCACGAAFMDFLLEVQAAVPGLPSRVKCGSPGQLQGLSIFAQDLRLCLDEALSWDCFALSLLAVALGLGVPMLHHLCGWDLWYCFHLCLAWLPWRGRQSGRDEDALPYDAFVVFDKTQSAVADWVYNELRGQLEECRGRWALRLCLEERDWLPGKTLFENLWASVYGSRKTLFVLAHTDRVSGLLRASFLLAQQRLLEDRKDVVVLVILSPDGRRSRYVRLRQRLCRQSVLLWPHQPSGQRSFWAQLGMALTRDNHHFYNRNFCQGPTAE
- Assay: TLR9 inhibition reporter assay (HEK-Blue cells, SEAP reporter, ODN2006 stimulation)
- Run parameters: HEK-Blue cells overexpressing human TLR9, SEAP reporter, ODN2006 5 nM
Please assign n whenever IC50 is at or above 20 µM, and y whenever it is below.

Cc1cc(-c2[nH]nc(C(=O)N(C)CCCN(C)C)c2C(C)C)cn2ncnc12 [Example 24] : y
Cc1cc(-c2[nH]nc(-c3cnc(C4CCNCC4)nc3)c2C(C)C)cn2ncnc12 [Example 343] : n
Cc1cc(-c2[nH]nc(-c3nc4c(s3)CN(CC(C)C)CC4)c2C(C)C)cn2ncnc12 [Example 255] : y
Cc1cc(-c2[nH]nc(-c3ccc(C4CCN(C)CC4)nc3)c2C(C)C)cn2ncnc12 [Example 359] : n

stdin: Decide: IC50 of Cc1cc(-c2[nH]nc(C(=O)N[C@H]3CCCN(CC4=NC(C)N=N4)C3)c2C(C)C)cn2ncnc12 (some centres unmarked) [Example 165] strictly below 20 µM?
stdout: n

====

I'd be grateful if you could share measured pIC50 for these entries.
- Target under test: human TLR7 (Homo sapiens, UniProt Q9NYK1)
- Assay: TLR7 inhibition reporter assay (HEK-Blue cells, SEAP reporter, gardiquimod stimulation)
- Run parameters: HEK-Blue cells overexpressing human TLR7, SEAP reporter, gardiquimod 7.5 μM
Counter-ions that a name gives are not always drawn.
Give bare numbers, as −log10 of the molar value.

Example entries begin here.
Cc1cc(-c2[nH]nc(C(=O)NCC3CN(CC(C)(C)O)CCO3)c2C(C)C)cn2ncnc12 (centres unmarked) [Example 143] : 8.27
COc1cc(-c2[nH]nc(-c3ccc(C4CCN(CC5CCOCC5)CC4)cn3)c2C(C)C)cn2ncnc12 [Example 375] : 7.70
Cc1cc(-c2[nH]nc(-c3ccc(C4CCN(C(C)C)CC4)cc3)c2C(C)C)cn2ncnc12 [Example 307] : 6.93
COc1cc(-c2[nH]nc(-c3nc4c(s3)CNCC4)c2C(C)C)cn2ncnc12 [Example 220] : 8.85
Cc1cc(-c2[nH]nc(-c3cnc(C4CCNCC4)nc3)c2C(C)C)cn2ncnc12 [Example 343] : 7.62
Cc1cc(-c2[nH]nc(C(=O)NC3CCOCC3)c2C(C)C)cn2ncnc12 [Example 28] : 7.41
Cc1cc(-c2[nH]nc(C(=O)NC3CCN(CC4CCOC4)CC3)c2C(C)C)cn2ncnc12 (centres unmarked) [Example 72] : 8.91
CCN1CCC[C@H](NC(=O)c2n[nH]c(-c3cc(C)c4ncnn4c3)c2C(C)C)C1 [Example 164] : 8.88
COc1cc(-c2[nH]nc(C(=O)NC3CCNCC3)c2CC(F)(F)F)cn2ncnc12 [Example 190] : 9.10
CCCN1CC(c2ccc(-c3n[nH]c(-c4cc(C)c5ncnn5c4)c3C(C)C)cc2)C1 [Example 326] : 8.27

Report pIC50 for every entry below.
1. Cc1cc(-c2[nH]nc(C(N)=O)c2C(C)C)cn2ncnc12 [Example 29]
2. Cc1cc(-c2[nH]nc(C(=O)NC3CCN(C(C)C)CC3)c2C(C)C)cn2ncnc12 [Example 2]

stdout:
[7.74, 8.64]

Go through the list and state pIC50 for each entry.
1. Cc1cc(-c2[nH]nc(C3CCC(N4CCOCC4)CC3)c2C(C)C)cn2ncnc12 (single isomer, unassigned) [Example 290]
2. Cc1cc(-c2[nH]nc(C3CCC(N4CCC(N(C)C)CC4)CC3)c2C(C)C)cn2ncnc12 (single isomer, unassigned) [Example 293]
3. Cc1cc(-c2[nH]nc(C(=O)NC3CCN(CC4CCOCC4)CC3)c2C(C)C)cn2ncnc12 [Example 77]
4. Cc1cc(-c2[nH]nc(-c3cccc(NC(C)C)c3)c2C(C)C)cn2ncnc12 [Example 242]
5. Cc1cc(-c2[nH]nc(-c3ccc(NC(C)C)cc3)c2C(C)C)cn2ncnc12 [Example 244]
6. Cc1cc(-c2[nH]nc(C3CCN(C(=O)CCN(C)C)CC3)c2C(C)C)cn2ncnc12 [Example 208]
7. Cc1cc(-c2[nH]nc(-c3ccc(N)cc3)c2C(C)C)cn2ncnc12 [Example 233]
8. Cc1cc(-c2[nH]nc(C3CCC(N(C)C(=O)C4CN(C)C4)CC3)c2C(C)C)cn2ncnc12 (centres unmarked) [Example 300]

stdout:
1. 8.07
2. 8.53
3. 8.69
4. 7.33
5. 7.36
6. 9.00
7. 8.64
8. 7.97

Batch: pIC50 for all items listed.
1. Cc1cc(-c2[nH]nc(-c3ccc4c(c3)CCNC4)c2C(C)C)cn2ncnc12 [Example 213, HCl]
2. Cc1cc(-c2[nH]nc(-c3cnc(N)cn3)c2C(C)C)cn2ncnc12 [Example 226]
3. Cc1cc(-c2[nH]nc(C(=O)N3CC[C@@H](N(C)C)C3)c2C(C)C)cn2ncnc12 [Example 18]
4. Cc1cc(-c2[nH]nc(C(=O)NC3CCN(C4CCOCC4)CC3)c2CC(F)(F)F)cn2ncnc12 [Example 201]
5. Cc1cc(-c2[nH]nc(C(=O)N[C@H]3CC[C@@H](NCc4cccnc4)CC3)c2C(C)C)cn2ncnc12 [Example 95]

stdout:
[8.33, 9.46, 8.24, 8.18, 7.93]

====

- Target under test: human TLR7 (Homo sapiens, UniProt Q9NYK1)
- Sequence (Q9NYK1 27-1049): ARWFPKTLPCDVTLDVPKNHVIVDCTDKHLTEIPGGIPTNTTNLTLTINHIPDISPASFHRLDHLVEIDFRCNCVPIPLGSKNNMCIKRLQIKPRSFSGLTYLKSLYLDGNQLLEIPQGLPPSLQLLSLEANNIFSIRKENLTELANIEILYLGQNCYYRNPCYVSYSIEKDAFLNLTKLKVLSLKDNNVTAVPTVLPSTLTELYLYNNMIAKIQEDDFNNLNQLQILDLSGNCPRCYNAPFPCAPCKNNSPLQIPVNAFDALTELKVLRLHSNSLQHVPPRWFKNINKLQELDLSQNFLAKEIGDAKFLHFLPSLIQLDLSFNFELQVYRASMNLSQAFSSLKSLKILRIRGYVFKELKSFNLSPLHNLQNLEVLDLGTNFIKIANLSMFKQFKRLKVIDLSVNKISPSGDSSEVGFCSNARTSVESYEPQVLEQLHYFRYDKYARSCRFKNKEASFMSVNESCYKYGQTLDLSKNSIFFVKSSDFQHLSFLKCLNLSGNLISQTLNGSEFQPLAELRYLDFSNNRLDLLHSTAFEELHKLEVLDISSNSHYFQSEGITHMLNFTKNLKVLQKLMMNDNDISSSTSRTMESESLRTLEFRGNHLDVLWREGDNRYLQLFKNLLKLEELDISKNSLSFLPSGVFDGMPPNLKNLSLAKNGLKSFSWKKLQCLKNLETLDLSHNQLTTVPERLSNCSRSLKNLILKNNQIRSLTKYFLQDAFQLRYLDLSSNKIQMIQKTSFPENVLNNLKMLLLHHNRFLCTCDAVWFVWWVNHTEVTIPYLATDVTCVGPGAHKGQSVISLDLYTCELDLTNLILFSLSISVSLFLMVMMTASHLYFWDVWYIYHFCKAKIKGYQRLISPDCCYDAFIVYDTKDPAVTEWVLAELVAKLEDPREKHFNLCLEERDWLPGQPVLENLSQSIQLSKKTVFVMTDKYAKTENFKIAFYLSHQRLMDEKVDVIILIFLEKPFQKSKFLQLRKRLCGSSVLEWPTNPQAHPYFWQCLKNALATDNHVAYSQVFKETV
- Assay: TLR7 inhibition reporter assay (HEK-Blue cells, SEAP reporter, gardiquimod stimulation)
- Run parameters: HEK-Blue cells overexpressing human TLR7, SEAP reporter, gardiquimod 7.5 μM
What pIC50 was measured for each of the following?
Answers are plain numbers, as −log10 of the molar value.

Below, 2 compounds whose answers are already recorded.
COCCN1CCC(c2ccc(-c3n[nH]c(-c4cc(OC)c5ncnn5c4)c3C(C)C)cc2)CC1 : 8.21
COc1cc(-c2[nH]nc(C(=O)NC3CCN(C(C)C)CC3)c2C(C)C)cn2ncnc12 : 8.80

stdin: # pIC50 lookup, item `COc1cc(-c2[nH]nc(-c3ccc(C4CN(C(=O)CN(C)C)C4)cc3)c2C(C)C)cn2ncnc12`
stdout: 7.81
